target: Large neutral amino acids transporter small subunit 1 (Homo sapiens, UniProt Q01650); test: Cis-inhibition of human LAT1 expressed in TREx HEK293 cells at 200 uM assessed as inhibition of [3H]-gabapentin uptake preincubated for 3 mins at 37 degC followed by washing with choline buffer and measured after 3 hrs by scintillation counting analysis relative to BCH
Sequence (Q01650 whole entry): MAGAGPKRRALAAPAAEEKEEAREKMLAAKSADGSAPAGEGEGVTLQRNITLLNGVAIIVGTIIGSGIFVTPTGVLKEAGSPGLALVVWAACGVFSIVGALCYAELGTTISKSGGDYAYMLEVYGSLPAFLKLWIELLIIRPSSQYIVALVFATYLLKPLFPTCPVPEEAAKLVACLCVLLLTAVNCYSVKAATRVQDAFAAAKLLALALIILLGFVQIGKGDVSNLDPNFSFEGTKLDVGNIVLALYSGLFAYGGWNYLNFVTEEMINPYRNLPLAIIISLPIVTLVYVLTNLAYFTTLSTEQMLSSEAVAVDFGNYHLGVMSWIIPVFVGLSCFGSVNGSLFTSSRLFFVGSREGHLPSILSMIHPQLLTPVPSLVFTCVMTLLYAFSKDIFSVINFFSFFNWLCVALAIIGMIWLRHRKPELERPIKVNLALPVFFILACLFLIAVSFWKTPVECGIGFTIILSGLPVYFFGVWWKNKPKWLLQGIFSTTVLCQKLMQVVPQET
Flag rule - IC50 less than 100 µM flags Satisfied; the remaining entries get Not satisfied.

structure_notation=COC(=O)c1cccc(C[C@H](N)C(=O)O)c1 class_label=Satisfied
structure_notation=N[C@@H](Cc1cn(Cc2ccccc2)cn1)C(=O)O class_label="Not satisfied"
structure_notation=CSCC[C@](N)(Cc1ccccc1)C(=O)O class_label="Not satisfied"
structure_notation=N[C@H](CC1CCCCC1)C(=O)O class_label="Not satisfied"
structure_notation=N[C@@H](CC1CCCCC1)C(=O)O class_label="Not satisfied"
structure_notation=CSCC[C@H](N)C(=O)O class_label="Not satisfied"
structure_notation=CC[C@H](C)[C@H](N)C(=O)O class_label="Not satisfied"
structure_notation=N[C@@H](Cc1cccc(O)c1)C(=O)O class_label="Not satisfied"
structure_notation=N[C@@H](Cc1cccc(C(=O)O)c1)C(=O)O class_label="Not satisfied"
structure_notation=CNC(=O)c1cccc(C[C@H](N)C(=O)O)c1 class_label=Satisfied
structure_notation=Cc1cc(C[C@H](N)C(=O)O)cc(C(=O)O)c1 class_label="Not satisfied"
structure_notation=N[C@@H](Cc1c[nH]c2ccccc12)C(=O)O class_label="Not satisfied"
